# Test system: Plasmodium berghei
# TEST_PROTOCOL: Luciferase/luciferin-expressing antifolate-resistant parasites were used to infect a culture of HepG2 cells that were pre-incubated with compounds. Infected hepatocytes emit light due to the luciferase reaction. Assay results are presented as the percent inhibition of light emission compared to control. […]
# Format: functional
# PROTOCOL_CONDITIONS: sporozoite, HEPG2TOX_HILL_SLOPE 3.17, HEPG2TOX_R_SQUARED 0.943, PBLUC_HILL_SLOPE 8.03, PBLUC_R_SQUARED 0.294, read-out: LUCIFERASE INFECTION ASSAY - IC50
PROPERTY_LABEL: IC50 (µM)

• COc1ccc(NC(=O)c2ccn[nH]2)cc1NC(=O)c1ccc(Cl)cc1F = 3.7
